Listed here: items and their measured hIZCD40L-driven Human B Cell Proliferation EC50.
# measured on: T1, human isoleucine zipper-CD40L (IZ-hCD40L) (human, UniProt P29965 113-261)
# T1 sequence: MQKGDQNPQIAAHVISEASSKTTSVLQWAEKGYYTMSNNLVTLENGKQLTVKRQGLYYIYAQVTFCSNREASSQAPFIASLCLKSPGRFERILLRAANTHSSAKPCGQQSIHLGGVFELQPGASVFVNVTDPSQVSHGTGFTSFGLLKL
# assay method text: cell-based or functional assay

binder	result
BMS2h-747 (other) VH: EVQLLESGGGLVQPGGSLRLSCAASGFTFDDGTMGWARQAPGKGLEWVSLILPSGSRTYYADSVKGRFTISRDNSKNTLYLQMNSLRAEDTAVYYCAKHSLTNRPFDYWGQGTLVTVSS	> 7 µM

Turning to the following binder.
input: Looking for the measured hIZCD40L-driven Human B Cell Proliferation EC50 of BMS2h-717 (other) VH: EVQLLESGGGLVQPGGSLRLSCAASGFTFSSYEMAWVRQAPGKGLEWVSRIEPDGSNTYYADSVKGRFTISRDNSKNTLYLQMNSLRAEDTAVYYCAKGPDNFTMFDYWGQGTLVTVSS , can you help?
output: > 7 µM
